Record form. Attribute: growth. Fill in for each entry.
# Test system: CAKI-1 renal
# assayOverview: NCI-60 one-dose screen, 48 h (100 = growth as untreated, 0 = no growth, -100 = all killed)
# conditionNotes: 10 µM unless noted
This is part of a sample that, as a whole, favours compounds with a hit. Of some 83,000 tested, about 20% had one in any assay.
Write the number in % without appending the unit.

Asked: Tell me its growth given `Oc1ccccc1C=NCCN=Cc1ccccc1O.[Fe]` as the entry.
Given back: 98.1

Asked: Tell me its growth given `O=S(=O)(c1ccc(O)cc1)c1ccccc1O` as the entry.
Given back: 96.2

Asked: Tell me its growth given `C[C@]12CCc3sc(Nc4ccc(OC(F)(F)F)cc4)nc3C1=CC[C@@H]1[C@@H]2CC[C@]2(C)C(=O)CC[C@@H]12` as the entry.
Given back: 60.4

Asked: Tell me its growth given `OCCNC1CCCCC1` as the entry.
Given back: 102

Asked: Tell me its growth given `N#CC(C#N)=Cc1cccc(F)c1` as the entry.
Given back: 99.6

Asked: Tell me its growth given `CN(C)C(=S)SSC(=S)N(C)C` as the entry.
Given back: 90.9

Asked: Tell me its growth given `Cn1cc(C(=O)C[n+]2ccccc2)c2ccccc21` as the entry.
Given back: 99.5

Asked: Tell me its growth given C=CCOC(=O)C(Br)CC (stereo unspecified) as the entry.
Given back: 101

Asked: Tell me its growth given `O=C(O)c1ccccc1N(CCO)CCCl` as the entry.
Given back: 112

Asked: Tell me its growth given `CO[C@@H]([CH2][Hg][O]C(=O)c1ccccc1)[C@@H]([CH2][Hg][O]C(=O)c1ccccc1)OC` as the entry.
Given back: 94.3

Asked: Tell me its growth given `CC[C@H](C)[C@H](NC(=O)[C@H]1CCCCN1C)C(=O)N(C)[C@H](CCc1nc(C(=O)N[C@@H](Cc2ccccc2)C[C@H](C)C(=O)O)cs1)C(C)C` as the entry.
Given back: 51.2

* * *

# Tested on: OVCAR-5 ovarian
# assayOverview: NCI-60 one-dose screen, 48 h (100 = growth as untreated, 0 = no growth, -100 = all killed)
# conditionNotes: 10 µM unless noted
The panel holds about 83,000 compounds, 20% with a hit somewhere; the sample as a whole holds those more often.
Record form. Attribute: growth. Fill in for each entry.
Write the number in % without appending the unit.

Asked: Tell me its growth given `O=[N+]([O-])c1cc(Cl)c(Cl)c([N+](=O)[O-])c1Cl` as the entry.
Given back: 107

Asked: Tell me its growth given `CC[C@H](C)[C@H](NC(=O)[C@H]1CCCCN1C)C(=O)N(C)[C@H](C[C@@H](OC(C)=O)c1nc(C(=O)N[C@@H](Cc2ccccc2)C[C@H](C)C(=O)O)cs1)C(C)C` as the entry.
Given back: 57.7

Asked: Tell me its growth given `Cc1ccc(N2CCN(CCC#N)CC2)cc1` as the entry.
Given back: 92.5

Asked: Tell me its growth given `CC[C@H](C)[C@H](NC(=O)c1ncccn1)C(=O)N(C)[C@H](C[C@@H](OC(C)=O)c1nc(C(=O)N[C@@H](Cc2ccccc2)C[C@H](C)C(=O)OC)cs1)C(C)C` as the entry.
Given back: 74.3

* * *

Record form. Attribute: growth. Fill in for each entry.
# System: 786-0 renal
# assayOverview: NCI-60 one-dose screen, 48 h (100 = growth as untreated, 0 = no growth, -100 = all killed)
# conditionNotes: 10 µM unless noted
About 83,000 compounds went through this panel and 20% of them were active in at least one assay; those are over-represented in the sample as a whole.
Write the number in % without appending the unit.

Asked: Tell me its growth given `CCCCS(=O)(=O)Cl` as the entry.
Given back: 103

Asked: Tell me its growth given `CC1(C)N=C(N)N=C(N)N1c1ccc(CCC(=O)Nc2ccc(S(=O)(=O)F)cc2)cc1` as the entry.
Given back: 21.3

Asked: Tell me its growth given `S=P(SP(=S)(c1ccccc1)c1ccccc1)(c1ccccc1)c1ccccc1` as the entry.
Given back: 110

Asked: Tell me its growth given `Cc1c(C)c(N)c(C)c(C)c1N` as the entry.
Given back: 107

Asked: Tell me its growth given `CN1[C@@H](CC(=O)c2ccccc2)CCC[C@H]1CC(=O)c1ccccc1` as the entry.
Given back: 108

Asked: Tell me its growth given `c1ccc2c(c1)sc1ccccc12` as the entry.
Given back: 105

Asked: Tell me its growth given `CC[C@H](C)[C@H](NC(=O)CN(C)C)C(=O)N(C)[C@H](C[C@@H](OC(C)=O)c1nc(C(=O)NC23CC(C(=O)OC)(C2)C3)cs1)C(C)C` as the entry.
Given back: 26.4

Asked: Tell me its growth given `CCCCn1c(=O)c(C(=O)NCc2ccccc2Cl)c(O)c2ccccc21` as the entry.
Given back: 52.2

Asked: Tell me its growth given `C[C@]12CCc3sc(Nc4ccc(OC(F)(F)F)cc4)nc3C1=CC[C@@H]1[C@@H]2CC[C@]2(C)C(=O)CC[C@@H]12` as the entry.
Given back: 30.5

Asked: Tell me its growth given COC1C(O)CC(OC2CC(Oc3cc4cc5c(c(O)c4c(O)c3C)C(=O)[C@@H](OC3CC(OC4CC(OC6CC(C)(O)C(OC(C)=O)C(C)O6)C(O)C(C)O4)C(O)C(C)O3)[C@H]([C@H](OC)C(=O)[C@@H](O)[C@@H](C)O)C5)OC(C)C2OC(C)=O)OC1C (stereo not given in full) as the entry.
Given back: 1.26

Asked: Tell me its growth given `O=C(Cc1ccccc1)c1ccccc1` as the entry.
Given back: 102

Asked: Tell me its growth given `COC(=O)CCP(CCC(=O)OC)c1ccccc1` as the entry.
Given back: 102

Asked: Tell me its growth given O=C1c2ccccc2C(=O)N1N1CC1c1ccccc1 (stereo not given) as the entry.
Given back: 98.9

Asked: Tell me its growth given `CC/C(Cc1ccccc1)=C(\c1ccc(OCCN2CCCC2)cc1)c1ccc(OC(=O)NCc2ccccc2)cc1` as the entry.
Given back: 20.7

Asked: Tell me its growth given CC(Oc1ccc(-c2ccccc2)cc1)C(=O)O (stereo not given) as the entry.
Given back: 101

Asked: Tell me its growth given `O=[N+]([O-])c1ccc(P(=O)(O)O)cc1` as the entry.
Given back: 96

Asked: Tell me its growth given `COc1ccn(C)c(=O)c1C#N` as the entry.
Given back: 104

Asked: Tell me its growth given `O=[N+]([O-])c1cc(Br)c(O)c(Br)c1` as the entry.
Given back: 102

Asked: Tell me its growth given `C=CC[PH+](c1ccccc1)c1ccccc1.C=CC[PH+](c1ccccc1)c1ccccc1.[Pt+2].[S-]c1ncccn1.[S-]c1ncccn1` as the entry.
Given back: 19.6

Asked: Tell me its growth given `COc1ccc2c(c1)c(-c1nc(-c3c[nH]c4ncccc34)cs1)cn2CCCCN1CCOCC1` as the entry.
Given back: -43.7

Asked: Tell me its growth given `COc1ccc2c(c1)c(-c1nc(-c3cn(C)c4ncccc34)cs1)cn2CCCCN1CCOCC1` as the entry.
Given back: -71.7

Asked: Tell me its growth given `O=C(O)CNCP(=O)(O)O` as the entry.
Given back: 106

Asked: Tell me its growth given O=C(O)C(Br)CBr (stereo not given) as the entry.
Given back: 96.4

Asked: Tell me its growth given `COc1cc2c(cc1OC)[C@@H]1C(=O)c3ccc4c(c3O[C@@H]1CO2)C[C@H](C(C)C)O4` as the entry.
Given back: 60.2

Asked: Tell me its growth given `CC1(C)C=Cc2c(ccc3c2[N+]([O-])=C2C3=C[C@@]34NC(=O)[C@]5(CCCN5C3=O)C[C@@H]4C2(C)C)O1` as the entry.
Given back: 42.1

Asked: Tell me its growth given `C[C@]12CCc3sc(Nc4ccc(O)cc4)nc3C1=CC[C@@H]1[C@@H]2CC[C@]2(C)C(=O)CC[C@@H]12` as the entry.
Given back: -3.03

Asked: Tell me its growth given COc1ccc2c(c1)C1(C)CCN(C)CC(C1)C2O (stereo not given) as the entry.
Given back: 94.8

Asked: Tell me its growth given `N#CCN(CC#N)[N+](=O)[O-]` as the entry.
Given back: 103

Asked: Tell me its growth given CC[C@H](C)[C@H](NC(=O)CN(C)C)C(=O)N(C)[C@H](C[C@@H](OC(C)=O)c1nc(C(=O)NC23C4C5C2C2C3C4C52C(=O)OC)cs1)C(C)C (stereo not given in full) as the entry.
Given back: 31.3

Asked: Tell me its growth given `Cc1cc(N(CCCl)CCCl)ccc1C=Nc1ccc(-c2csc(-c3ccccc3)n2)cc1` as the entry.
Given back: 59.2

Asked: Tell me its growth given `Cc1nnc([S-])o1.[Au+].c1ccc([PH+](c2ccccc2)c2ccccc2)cc1` as the entry.
Given back: 38.8

Asked: Tell me its growth given `O=[N+]([O-])c1ccc2scc3c4ccccc4nc-3c2c1` as the entry.
Given back: -82.9

Asked: Tell me its growth given `Cc1cc(NC(=O)NCCCOc2ccc(N3C(N)=NC(N)=NC3(C)C)cc2Cl)ccc1S(=O)(=O)F` as the entry.
Given back: 40.1

Asked: Tell me its growth given `CC(=O)Cc1ccc2c(c1)OCO2` as the entry.
Given back: 109

Asked: Tell me its growth given `C[C@]12CC[C@H]3[C@@H](CC=C4c5nc(-c6ccc(Br)cc6)sc5CC[C@@]43C)[C@@H]1CC[C@@H]2O` as the entry.
Given back: 45

Asked: Tell me its growth given `C[C@]12CC[C@@H](OC(=O)N(CCCl)N=O)C[C@@H]1CC[C@@H]1[C@@H]2CC[C@]2(C)C(=O)CC[C@@H]12` as the entry.
Given back: 28.4

Asked: Tell me its growth given `N#CCc1ccc(CC#N)cc1` as the entry.
Given back: 97.5

Asked: Tell me its growth given CC[C@H](C)[C@H](NC(=O)[C@H]1CCCCN1C)C(=O)N(C)[C@H](C[C@@H](OC(C)=O)c1nc(C(=O)NC23C4C5C2C2C3C4C52C(=O)OC)cs1)C(C)C (stereo not given in full) as the entry.
Given back: 13.7

Asked: Tell me its growth given `CCC(Br)(CC)C(=O)NC(N)=O` as the entry.
Given back: 107

Asked: Tell me its growth given `Cc1cc2c(cc1-c1ccnc(/C=C/C(=O)O)c1)C(C)(C)CCC2(C)C` as the entry.
Given back: 79.6
